- System: F4 (K88) fimbriae on intact ETEC strain SP11 cells (Escherichia coli (ETEC-F4+, strain SP11))
- Method notes: whole-cell binding with qPCR quantification of eluted aptamer
- Particulars: 138 mM NaCl, 20 mM Tris-HCl pH 7.4, 2.7 mM KCl, 1 mM CaCl2, 0.5 mM MgCl2, 0.1 mg/mL salmon sperm DNA; 30 min at 37 C, 500 rpm; washes with 0.05% Tween 20
Measurement name: Kd (nM)
A number alone suffices; assume nM.

Lookup: For the sequence CGTACGGTCGACGCTAGCGGAGACCGTACCATCTGTTCGTGGAAGCGCTTTGCTCGTCCATTAGCCTTGTGCTCGTGCCACGTGGAGCTCGGATCC [Apt37] , report Kd.
Found: 50.8
